B1: Azoarcus group I ribozyme (parent)
chain: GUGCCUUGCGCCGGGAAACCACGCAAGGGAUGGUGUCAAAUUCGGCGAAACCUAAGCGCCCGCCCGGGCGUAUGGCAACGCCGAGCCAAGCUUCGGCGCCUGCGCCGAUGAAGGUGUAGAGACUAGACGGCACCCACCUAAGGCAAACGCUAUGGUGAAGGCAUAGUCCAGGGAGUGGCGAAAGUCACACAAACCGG

variants of: B1; assay: reverse-splicing fitness (ratio to wild type); higher = more active; in vitro selection; Mg2+ level not given
Classify by measured reverse-splicing fitness: Yes if it is equal to or exceeds 0.02, No if it is smaller.

> print(dat)
                                mutant.label  assigned.label
 1             A111U A120G A145U C169G U176G              No
 2  C82A A111C A120U A145C C150A C169A U176C              No
 3  C82G A111G A120G A145U C150A C169A U176C              No
 4              C82U A111U A145C C169A U176C              No
 5                               A111G U176A             Yes
 6        C82G A111C A120C C150U C169U U176G              No
 7  C82G A111G A120C A145U C150U C169A U176A              No
 8              C82U A111G A120C A145G C150U             Yes
 9  C82G A111U A120U A145U C150U C169U U176C              No
10              C82G A120G C150U C169G U176A              No
11                                C82G C150U             Yes
12  C82U A111C A120U A145G C150G C169G U176A              No
13                    C82A A111C A120C U176G              No
14  C82U A111C A120G A145C C150G C169A U176C              No
15        C82A A111C A145U C150A C169A U176A              No
16              C82U A111C A145G C150A U176G              No
17  C82G A111G A120C A145C C150U C169U U176G              No
18                   A120U A145U C150G C169G             Yes
19        C82G A111C A145U C150A C169U U176C              No
20        C82U A111C A120U A145C C150U C169U              No
21                               C150A U176C             Yes
22                          C82G A145U U176C             Yes
23                                C82A A145U             Yes
24              C82U A120G A145G C169G U176C             Yes
25             A111U A120U C150U C169U U176C              No
26        C82G A111G A145G C150U C169G U176G              No
27        C82A A111C A120C A145U C150A U176C              No
28  C82G A111U A120U A145C C150A C169G U176C              No
29        C82U A111U A145G C150U C169A U176C              No
30              C82G A111C A120G C169G U176C             Yes
31              C82G A120G C150G C169G U176G              No
32        C82U A120G A145U C150U C169U U176C              No
33        C82G A120C A145C C150A C169G U176G              No
34              C82A A145G C150G C169G U176G              No
35        C82G A120U A145G C150A C169U U176C              No
36              C82A A120G C150A C169U U176C             Yes
37        C82U A111G A120U C150U C169G U176A              No
38              C82A A111C A120C A145U U176C              No
39        C82A A111G A120C A145C C150A C169A              No
40              C82U A120U C150G C169U U176A              No
41              C82G A145U C150G C169U U176A              No
42        C82A A111U A120C A145G C150G U176A              No
43       A111C A120G A145U C150A C169U U176G              No
44                    C82G A111G A145U C150A             Yes
45       A111G A120U A145U C150G C169G U176C              No
